Would you mind telling me the reported glycan array binding signal (z-score) of each entry?
Biological target: Neu5Ac(a2-3)Gal(b1-3)GalNAc(b1-3)Gal(a1-4)Gal(b1-4)Glc
Test: glycan array binding signal (z-score within array); higher = stronger binding
Conditions: glycan notation: IUPAC condensed, linker removed
The entries come from a sample that favours the strongest signals as a whole.

Look up glycan array binding signal (z-score) for this binder: XTP3-B-MRH1 (Homo sapiens), Q96DZ1 (protein) LLEPLFKQSSCSYRIESYWTYEVCHGKHIRQYHEEKETGQKINIHEYYLGNMLAKNLLFEKEREAEEKEKSNEIPTKNIEGQMTPYYPVGMGNGTPCSLKQNRPRSSTVMYICHPESKHEILSVAEVTTCEYEVVILTPLLCSHPKYRFRA
-0.636

// lookup glycan array binding signal (z-score) for ASA (Allium sativum) (protein) KAHEKERMGRNTPSAKLMSIAAVAAILTILASTCMARNLLTNGEGLYAGQSLNVEPYHFIMQEDCNLVLYDHSTAVWATNTDIPGKKECRAVLQSDGNFVVYDADGRPLWASHSVRGNGNYVLVLQEDGNVVIYGSDIWSTGTYVKAARGPVVVAMNGTVDGGSLIRPVIVNKNHVPVIRKVGTLSRNILRNDEGLYAGQSLDVEPYHFIMHEDCNLVLYDHSTAVWASNTDIPGKKGCKAVLQSDGNFVVYDAEGRSLWASHSVRGNGNYVLVLQEDGNVVIYGSDIWSTDTYRKSARGPVIRKVGTLAGAA
-0.228

Which glycan array binding signal (z-score) is listed for LBL-152 (Laetiporus bicolor), B0D650 (protein) MSNEYNPPLGIAFRLCGLASDRVLFSRVSPSPEVFHHPKSEVYPDQWFVAIPGSGQNAGCYAIKSKNTGKVLFSRMSPDPRVGHIDGDGKYPDNWFKFEAGSGKYAGYFRLRAVASDTVLVSRTSTGTDTQVINYPATSAKYDDQYFTILFDHHHHHH ?
-0.15
